Exercise: state measured koff for each of the binders provided.
system_tested: T1, human CD8A-Fc (recombinant human CD8 alpha fused to Fc fragment of human IgG1) (human, UniProt P01732 22-182, limits assumed)
T1 construct: SPR ligand, captured by goat anti-human Fc; also called hCD8A-Fc; recombinant CD8 alpha; not shown: linker with flag (and polyhistidine) tag and Fc fragment of human IgG1; depends on which of the two constructs was used
test: SPR on recombinant human CD8 alpha after DFO conjugation, higher affinity population
Only the number, expressed in s⁻¹, is required.

In one line, give reported koff of the entry CD8S367-DFO (designed binder, deferoxamine (DFO) conjugated to the free cysteine introduced by E54C, DFO conjugate of CD8S367) LPAPKNLVVSRVTEDSARLSWTAPDAAFDSFAIAYPEWPPQGEAIVLTVPGSCRSYDLTGLKPGTEYFVVIYGVKGGSYSAPLSAIFTT .
0.000131

Answer with the recorded koff for the binder listed here: CD8S368-DFO (designed binder, deferoxamine (DFO) conjugated to the free cysteine introduced by E54C, DFO conjugate of CD8S368) LPAPKNLVVSRVTEDSARLSWTAPDAAFDSFQIAYPEWPPPGEAIVLTVPGSCRSYDLTGLKPGTEYFVIIQGVKGGVESWPLSAIFTT
2.53e-05

Dear colleague, please send me the reported koff for CD8S365-DFO (designed binder, deferoxamine (DFO) conjugated to the free cysteine introduced by E54C, DFO conjugate of CD8S365) LPAPKNLVVSRVTEDSARLSWTAPDAAFDSFGILYYEPVDSGEAITLPVPGSCRSYDLTGLKPGTEYWVVITGVKGGAPSTPLGTIFTT when you can.
4.18e-05

Please give measured koff of the following entry: CD8S366-DFO (designed binder, deferoxamine (DFO) conjugated to the free cysteine introduced by E54C, DFO conjugate of CD8S366) LPAPKNLVVSRVTEDSARLSWTAPDAAFDSFWITYPEWPDPGGEAIVLTVPGSCRSYDLTGLKPGTEYFVVIYGVKGGEIYSPLSAIFTT
7.01e-05
